# assay procedure: Binding affinity to GSK3 at 10 uM
Parameter threshold = 5%. Response is class 1 when inhibition meets or exceeds it, else class 0.

Please review the entries below; each comes with its answer.
1. COCCCNC(=O)N/N=C/c1cc(C(=O)NOCCO)c(Nc2ccc(I)cc2F)c(F)c1F class 1
2. O=C(NOCCO)c1ccc(F)c(F)c1Nc1ccc(I)cc1F class 0
3. O=C(O)CCCO/N=C/c1cc(C(=O)NOCCO)c(Nc2ccc(I)cc2F)c(F)c1F class 1

Ask: State whether the measured inhibition reaches 5%, counting equality as reaching it, for O=C(O)c1ccc(CO/N=C/c2cc(C(=O)NOCCO)c(Nc3ccc(I)cc3F)c(F)c2F)o1
Result: class 1

Ask: State whether the measured inhibition reaches 5%, counting equality as reaching it, for O=C(NOCCO)c1cc(COCCO)c(F)c(F)c1Nc1ccc(I)cc1F
Result: class 1
